- Test system: Fibroblast
- EXPERIMENT_NOTES: Multiplex assay against human fibroblast
- Format: toxicity, cell-based
- MEASUREMENT_PARAMETERS: 12 h, 10 µM, compound concentration 10 uM, replicate 1
ENDPOINT_NAME: Population Apoptotic (%)

| COMPOUND | Population Apoptotic (%) |
| --- | --- |
| O=C(CCCc1ccccc1)Nc1nc2ccccc2c(=O)s1 | 51% |

Challenge: Quick one: Population Apoptotic (%) of CCCCC1=NC2(CCCC2)C(=O)N1Cc1ccc(-c2ccccc2-c2nnn[nH]2)cc1 [IRBESARTAN] ?
Response given: 60%

====

- System: U2OS
- EXPERIMENT_NOTES: Multiplex assay against U2OS
- Type: toxicity, cell-based
- MEASUREMENT_PARAMETERS: human, 48 h, 10 µM, compound concentration 10 uM, replicate 1
ENDPOINT_NAME: Population Mitotic Cells (%)
# output: bare number, implied unit %

| MOLECULE | Population Mitotic Cells (%) |
| --- | --- |
| Cc1onc(-c2ccccc2Cl)c1C(=O)N(C)c1ccc(Cl)cc1 | 30 |
| CCc1cc2cc(NS(=O)(=O)c3ccc(C#N)cc3)ccc2n(CC)c1=O | 11 |
| CC(C)(C)c1cc(NC(=O)Nc2ccc(-c3cn4c(n3)sc3cc(OCCN5CCOCC5)ccc34)cc2)no1 | 27 |
| O=C(CCCc1ccccc1)Nc1nc2ccccc2c(=O)s1 | 8 |

Challenge: Query Population Mitotic Cells (%) on U2OS for Cc1sc2c(c1C)C(c1ccc(Cl)cc1)=N[C@@H](CC(=O)NCCCCCCCCNC(=O)COc1cccc3c1C(=O)N(C1CCC(=O)NC1=O)C3=O)c1nnc(C)n1-2 (stereo partly specified)
Response given: 0

Challenge: // same read-out, input: `CCCOc1ccc2[nH]cc(C3=CCNCC3)c2n1.Cl`
Response given: 0
